TARGET_OR_TEST_SYSTEM: CLK1 (human) (UniProt P49759)
Sequence (P49759 whole entry, looked up): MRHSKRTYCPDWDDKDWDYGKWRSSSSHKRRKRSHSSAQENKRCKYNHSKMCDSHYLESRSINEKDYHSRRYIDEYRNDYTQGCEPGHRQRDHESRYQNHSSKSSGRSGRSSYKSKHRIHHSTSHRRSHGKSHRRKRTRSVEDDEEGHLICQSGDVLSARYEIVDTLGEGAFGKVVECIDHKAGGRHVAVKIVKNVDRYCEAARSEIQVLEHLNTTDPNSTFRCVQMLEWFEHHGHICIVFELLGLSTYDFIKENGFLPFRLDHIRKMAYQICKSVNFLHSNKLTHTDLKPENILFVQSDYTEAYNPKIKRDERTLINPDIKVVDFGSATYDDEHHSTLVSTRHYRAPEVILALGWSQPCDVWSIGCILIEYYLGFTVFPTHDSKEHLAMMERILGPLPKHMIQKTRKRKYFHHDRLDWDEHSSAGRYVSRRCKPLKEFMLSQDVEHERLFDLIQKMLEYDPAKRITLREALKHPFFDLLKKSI
ASSAY_INFO: radiometric filter-binding kinase assay, Kinase HotSpot
EXPERIMENTAL_CONDITIONS: compound 0.5 µM; ATP 10 µM
// residual activity lookup, one value per entry
# unit: % | format: bare number

Some solved cases for reference:
CC(=O)O/N=C1\C(=C2\C(=O)Nc3cc(Br)ccc32)Nc2ccccc21    83.3
COc1ccc(OC)c2c(=S)c3ccccc3[nH]c12    98.4
CCn1cnc2c(Nc3cccc(Cl)c3)nc(N[C@@H]3CCCC[C@@H]3N)nc21    89.3
CN(C)C[C@H]1CCn2c(c(C3=C(c4cn(C)c5ccccc45)C(=O)NC3=O)c3ccccc32)C1    105
O=C1Cc2c([nH]c3ccc(Br)cc23)-c2ccccc2N1    96.7
O=C(CCCc1ccc(-c2ccccc2F)cc1)Nc1ccc(O)cc1    101
O=C1Nc2ccccc2/C1=C1/Nc2ccccc2/C1=N\OCCC(O)CO (stereo not given)    36.6
CC(C)[C@H](CO)Nc1nc(Nc2cc(N)cc(Cl)c2)c2ncn(C(C)C)c2n1    51.9

Find the measured residual activity: item `CN([C@@H](Cc1ccc(OS(=O)(=O)c2cccc3cnccc23)cc1)C(=O)N1CCN(c2ccccc2)CC1)S(=O)(=O)c1cccc2cnccc12` , target or system CLK1 (human) (UniProt P49759).
97.3

Also `Oc1ccc(Nc2nc(-c3ccc(Cl)cc3)cs2)cc1` , if possible.
104
